Biological target: Luciferin 4-monooxygenase (Photinus pyralis)
Assay: Firefly luciferase counterscreen qHTS: Assay Interference Panel against the NCATS CANVASS Library (AID 1347363); further: 0% is about no effect
Conditions: purified firefly luciferase, luminescence inhibition, 5 min; series mostly up to 57.5 µM
The source made the active and inactive calls. The call rests on the fitted dose curve; in most records, active means well fitted curve in the direction sought with a large enough effect; inconclusive means small, poorly fitted or top-dose-only effect, or another doubt; inactive means no such curve, though single readings can be large or run the other way.
Pick from active, inactive when you respond.

Short answer needed: outcome of this test for C[C@]12CC(O)C3[C@@H](CCC4C[C@@H](O)CC[C@@]43CO)[C@@]1(O)CC[C@@H]2C1=CC(=O)OC1 (stereo not given in full) ? inactive

Short answer needed: outcome of this test for `C=C(C)[C@H]1C(=O)c2c3c(cc4c5c(n1c24)[C@@]1(C)[C@@H](CC[C@H]2[C@](C)(/C=C/C=C(\C)C(=O)O)[C@@H](O)CC[C@@]21C)C5)C1=CC(C)(C)OC(C)(C)[C@H]1[C@@H]3O` ? inactive

Short answer needed: outcome of this test for `C=C[C@H]1CN2CCc3c([nH]c4cccc(OC)c34)[C@@H]2C[C@@H]1/C(=C\OC)C(=O)OC` ? inactive

Short answer needed: outcome of this test for C1=C2CCCN[C@H]2C2CC1[C@H]1CCCCN1C2 (stereo not given in full) ? inactive

Short answer needed: outcome of this test for `CCCC[C@@H](C)/C=C1/CN2CCC[C@H]2[C@@](C)(O)[C@@H]1O` ? inactive

Short answer needed: outcome of this test for `CC[C@@H]1CN2CCc3c([nH]c4cccc(OC)c34)[C@@H]2C[C@@H]1/C(=C\OC)C(=O)OC` ? inactive

====

Test: Primary qHTS for inhibitors of SARS-S pseudo-typed particle cell entry (AID 1479145); further: nearly all actives have a fitted effect of over 45% in size
Conditions: SARS-S pseudotyped particle cell entry, luciferase reporter; at 57.1 µM (top of the series) unless noted
Records with an inconclusive call do not appear. The source made the active and inactive calls. The call rests on the fitted dose curve.
Measured Property: outcome

{"Molecule": "C[N+](C)(C)CCOP(=O)([O-])OP(=O)(O)OC[C@H]1OC(n2ccc(N)nc2=O)[C@H](O)[C@@H]1O (stereo partly drawn)", "Result": "inactive [at 0.573 µM]"}
{"Molecule": "O=P(O)(O)C(O)(Cc1cnc2ccccn12)P(=O)(O)O", "Result": "inactive [at 0.573 µM]"}

====

Assay: qHTS drug screen for cell cycle checkpoint inhibitors in PARPi-resistant BRCA-mutant ovarian cancer cell lines. (AID 1963452)
Conditions: PEO1/OlaR viability, CellTiter-Glo luminescence, 96 h; hits give low values
Measured Property: Z-AUC
Reply: number alone, nothing else.

Some solved cases for reference:
{"Chemical Structure": "CC1(C)CC(O)CC(C)(C)N1O", "Z-AUC": 0.107}
{"Chemical Structure": "C[C@]12COC(=O)C[C@@H]1CC[C@@H]1[C@@H]2CC[C@@]2(C)[C@H]1CC[C@]2(C)O", "Z-AUC": 0.596}
{"Chemical Structure": "Cn1c(CCCCCCC(=O)NO)nc2cc(N(CCCl)CCCl)ccc21", "Z-AUC": -0.877}

Z-AUC for `Cn1c(/C=C/CO)c(CO)c2c1C(=O)C=C(N1CC1)C2=O` is -0.176

====

Target: Nuclear receptor subfamily 1 group I member 3 (Homo sapiens) (UniProt Q14994)
Sequence (Q14994 whole entry, looked up): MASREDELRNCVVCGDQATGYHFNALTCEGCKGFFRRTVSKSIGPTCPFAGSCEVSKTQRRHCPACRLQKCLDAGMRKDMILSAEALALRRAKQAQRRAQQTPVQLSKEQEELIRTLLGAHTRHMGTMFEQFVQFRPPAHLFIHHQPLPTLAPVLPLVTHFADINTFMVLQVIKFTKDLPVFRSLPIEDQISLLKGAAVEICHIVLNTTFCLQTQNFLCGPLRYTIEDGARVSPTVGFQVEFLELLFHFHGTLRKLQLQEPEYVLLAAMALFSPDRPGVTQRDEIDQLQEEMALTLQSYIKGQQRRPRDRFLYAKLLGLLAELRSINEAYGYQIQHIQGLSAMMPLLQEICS
Assay: qHTS for Constitutive Androstane Receptor (CAR) Agonist screened against the NCATS CANVASS Library (AID 1347373);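 further: every well also contained 1.5 µM PK11195 alongside the test compound; 0% is about no effect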
Conditions: HepG2-hCAR-CYP2B6 luciferase reporter, ONE-Glo luminescence; series mostly up to 46.1 µM
Results filed as inconclusive are left out. The source made the active and inactive calls. The call rests on the fitted dose curve; in most records, active means well fitted activation curve with a large enough effect; inconclusive means small, poorly fitted or top-dose-only effect; inactive means no such curve, though single readings can be large or run the other way. Starred links: 1 amine or outer side, 2 acyl side, 3 side chain; linkers in the order of their positions; H or OH if unused. Positions of bridges follow the written chain, without caps; N, C: chain ends. Non-standard residues stand in square brackets, D forms with d. Residues, ends and D or L forms follow the SMILES beside them. ξ: configuration not given here. *: point of attachment. X3 = C[C@@H](Oc1ccc([C@H](N[*:1])C(=O)[*:2])cc1)[C@]1(/C=C\C(=O)[*:3])CO1; d(aIle) = CC[C@H](C)[C@@H](N)C(=O)O; X2 = CC(C)[C@@H](O)C(C)C(=O)*; ξNMeF = CNC(Cc1ccccc1)C(=O)O; ξT = CC(O)C(N)C(=O)O; ξS = NC(CO)C(=O)O
Measured Property: outcome

{"Compound": "CC[C@H](C)[C@H]1NC(=O)[C@@H](NC(=O)C(C)[C@H](O)C(C)C)[C@@H](C)OC(=O)C2COC(=O)CNC(=O)/C=C\\[C@]3(CO3)[C@@H](C)Oc3ccc(cc3)[C@H](NC1=O)C(=O)N(C)C(Cc1ccccc1)C(=O)NC(C(C)O)C(=O)N2 (some centres not stated) (X2-T[d(aIle)][X3][ξNMeF][ξT][ξS]; ester 1-C; linker 3-6 via G)", "Assay Target": "Nuclear receptor subfamily 1 group I member 3 (Homo sapiens) (UniProt Q14994)", "Measured Property": "outcome", "Result": "inactive"}
{"Compound": "C/C=C/[C@@H]1[C@H]2C[C@@H](C)CC[C@@H]2C(C)=C[C@H]1C(=O)c1c(O)c(-c2ccc(O)cc2)c[nH]c1=O", "Assay Target": "Nuclear receptor subfamily 1 group I member 3 (Homo sapiens) (UniProt Q14994)", "Measured Property": "outcome", "Result": "inactive"}
